Measured recombinant UMI read abundance (log10) by item
assay: recombinant UMI read abundance after kanamycin selection (control-corrected) (log10(CPM+1)); higher = more efficient recombination; extreme values may be limits of the assay; sequences stand for … in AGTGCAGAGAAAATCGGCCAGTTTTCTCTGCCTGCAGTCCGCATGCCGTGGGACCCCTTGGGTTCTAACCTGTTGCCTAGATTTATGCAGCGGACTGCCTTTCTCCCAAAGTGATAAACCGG…AGGTTGGTTTCACT; site = the 11-nt donor

| residues | recombinant UMI read abundance (log10) |
| --- | --- |
| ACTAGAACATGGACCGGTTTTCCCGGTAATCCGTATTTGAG (site ACTTGAACTCT) | 0.118 |
| TGCGGTCCATGGACCGGTTTTCCCGGTAATCCGTATTTGAG (site TGCGGTCCTCT) | 0.0157 |
| CAGGAACCATGGACCGGTTTTCCCGGTAATCCGTATTTGAT (site CCGGAACCTAT) | 0 |
| CAATTAACATGGACCGGTTTTCCCGGTAATCCGTATTTGCT (site CAATTAACTAG) | 0.982 |
| GATTATCCATGGACCGGTTTTCCCGGTAATCCGTATTTGCG (site GATTATCCTGG) | 0 |
| TGCCTTTCATGGACCGGTTTTCCCGGTAATCCGTATTTGAC (site AGCCTTTCTGT) | 0 |
| AGCTCACCATGGACCGGTTTTCCCGGTAATCCGTATTTGGG (site AGCTCATCTCC) | 0 |
| GTTTGAACATGGACCGGTTTTCCCGGTAATCCGTATTTGGC (site GTTCGAACTGC) | 0 |
| CACTACACATGGACCGGTTTTCCCGGTAATCCGTATTTGCT (site CGCTACACTAG) | 0.729 |

---

test: recombinant barcode read abundance after kanamycin selection (control-corrected) (log10(CPM+1)); higher = more efficient recombination; sequences stand for … in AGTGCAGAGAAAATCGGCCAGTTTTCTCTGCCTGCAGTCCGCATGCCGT…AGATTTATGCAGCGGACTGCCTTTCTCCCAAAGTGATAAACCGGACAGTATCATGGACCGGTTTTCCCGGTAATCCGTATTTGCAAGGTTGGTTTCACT; site = the 11-nt target
parameter: recombinant barcode read abundance (log10)

| residues | reported.result |
| --- | --- |
| TAACGCTCTTGGGTTCTAACCTGTTGCCT (site TAACGCTCTAG) | 1.2 |
| ACAAGACCTTGGGTTCTAACCTGTTGCAT (site TTCTAGTCTTA) | 0.0713 |
| CAACGGCCTTGGGTTCTAACCTGTTGCCT (site CAAAGGCCTAG) | 0 |
| ACACTAGCTTGGGTTCTAACCTGTTGCTG (site ACAGTAGCTCA) | 0.445 |
| GATAGCTCTTGGGTTCTAACCTGTTGCCT (site GATAGCTCTAG) | 0.998 |

---

assay: recombinant barcode read abundance after kanamycin selection (control-corrected) (log10(CPM+1)); higher = more efficient recombination; sequences stand for … in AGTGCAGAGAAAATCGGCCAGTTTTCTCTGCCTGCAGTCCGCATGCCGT…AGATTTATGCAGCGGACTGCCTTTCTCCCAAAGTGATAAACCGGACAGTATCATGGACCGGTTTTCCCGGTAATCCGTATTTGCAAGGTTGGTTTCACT; site = the 11-nt target
parameter: recombinant barcode read abundance (log10)

| residues | reported.result |
| --- | --- |
| GACCACCCTTGGGTTCTAACCTGTTGCGG (site GACCACCCTCC) | 2.85 |
| GCAGGTACTTGGGTTCTAACCTGTTGCCT (site TCAGGTACTAG) | 0.466 |
| TTGACGGCTTGGGTTCTAACCTGTTGCCT (site TTGACGGCTAG) | 0.165 |
| ACAGGTACTTGGGTTCTAACCTGTTGCCT (site CCAGGTACTAG) | 0.428 |
| GAGAAATCTTGGGTTCTAACCTGTTGCCT (site GAGAAATCTAG) | 0.59 |
| AAATTTCCTTGGGTTCTAACCTGTTGCCT (site AAATTTCCTAG) | 0.42 |
| CTATTCTCTTGGGTTCTAACCTGTTGCCT (site CTATTCGCTAG) | 0.011 |
| GTTTGACCTTGGGTTCTAACCTGTTGCGG (site GTTTGACCTCC) | 1.47 |
| TGTCGAGCTTGGGTTCTAACCTGTTGCCG (site TGTCGAGCTCG) | 0.107 |
| GCGTTGCCTTGGGTTCTAACCTGTTGCCT (site GCGTTGCCTAG) | 0.213 |

---

experiment: recombinant UMI read abundance after kanamycin selection (control-corrected) (log10(CPM+1)); higher = more efficient recombination; extreme values may be limits of the assay; sequences stand for … in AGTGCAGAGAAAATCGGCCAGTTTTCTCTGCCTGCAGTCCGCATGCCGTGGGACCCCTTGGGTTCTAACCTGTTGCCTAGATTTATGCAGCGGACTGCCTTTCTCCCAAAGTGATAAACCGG…AGGTTGGTTTCACT; site = the 11-nt donor
Measured recombinant UMI read abundance (log10) by item

| residues | recombinant UMI read abundance (log10) |
| --- | --- |
| ACACGTCCATGGACCGGTTTTCCCGGTAATCCGTATTTGAC (site ACACCTCCTGT) | 0 |
| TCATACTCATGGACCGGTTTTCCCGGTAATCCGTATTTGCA (site TCATACTCTAG) | 0 |
| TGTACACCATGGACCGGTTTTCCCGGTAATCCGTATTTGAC (site TGCACACCTGT) | 0 |
| CAAGCAGCATGGACCGGTTTTCCCGGTAATCCGTATTTGCC (site CAAGCAGCTTG) | 1.94 |
| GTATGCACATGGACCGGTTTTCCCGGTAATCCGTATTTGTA (site GGATGCACTTA) | 0.58 |
| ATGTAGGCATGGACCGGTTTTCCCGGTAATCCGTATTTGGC (site ATGTACGCTGC) | 0.834 |
| CGTTAGGCATGGACCGGTTTTCCCGGTAATCCGTATTTGCT (site CGTTTGGCTAG) | 0.00436 |
| TTATTGTCATGGACCGGTTTTCCCGGTAATCCGTATTTGCA (site TTATTGTCTTG) | 2.35 |
| GGAGTATCATGGACCGGTTTTCCCGGTAATCCGTATTTGAC (site GGAGTATCTGT) | 2.66 |

---

assay: recombinant barcode read abundance after kanamycin selection (control-corrected) (log10(CPM+1)); higher = more efficient recombination; sequences stand for … in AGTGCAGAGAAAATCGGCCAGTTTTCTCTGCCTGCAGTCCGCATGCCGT…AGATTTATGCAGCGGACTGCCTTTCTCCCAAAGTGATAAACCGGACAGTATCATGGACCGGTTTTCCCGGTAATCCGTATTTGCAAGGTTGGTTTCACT; site = the 11-nt target
parameter: recombinant barcode read abundance (log10)

| residues | reported.result |
| --- | --- |
| CTTCGAGCTTGGGTTCTAACCTGTTGCTG (site CTTCGAGCTCT) | 0.294 |
| GAGTAGTCTTGGGTTCTAACCTGTTGCCT (site GAGAAGTCTAG) | 0.0847 |
| CGTAGCTCTTGGGTTCTAACCTGTTGCCT (site CGAAGCTCTAG) | 0.133 |
| TTAAGCTCTTGGGTTCTAACCTGTTGCCT (site ATAAGCTCTAG) | 0.125 |
| CCACTCCCTTGGGTTCTAACCTGTTGCCT (site CCACTGCCTAG) | 0.0666 |
| AGTCGACCTTGGGTTCTAACCTGTTGCCT (site CGTCGACCTAG) | 0.328 |
| CGGCTACCTTGGGTTCTAACCTGTTGCGG (site GACGGCACTAG) | 0.0111 |
| AGACCTCCTTGGGTTCTAACCTGTTGCTT (site AGACGTCCTAA) | 0.138 |
| TAGTACCCTTGGGTTCTAACCTGTTGCAG (site TAGTACCCTAT) | 0.0395 |
| CTTTGGCCTTGGGTTCTAACCTGTTGCTT (site CTTTGGCCTAA) | 0.0961 |
| TATAGAGCTTGGGTTCTAACCTGTTGCGG (site TAGAGAGCTCC) | 0.488 |
| GTAGTAACTTGGGTTCTAACCTGTTGCCT (site GTAGTATCTAG) | 0.0374 |
| AGGAAGGCTTGGGTTCTAACCTGTTGCCA (site AGGAAGGCTTG) | 0.693 |
| GTCCTATCTTGGGTTCTAACCTGTTGCTA (site AGGTCTACTGT) | 0.146 |
| TACTAAGCTTGGGTTCTAACCTGTTGCTT (site TACTAAGCTAC) | 0.0381 |
| TCGCACACTTGGGTTCTAACCTGTTGCCT (site ACGCACACTAG) | 0.276 |
| CGAACGACTTGGGTTCTAACCTGTTGCCT (site CGAACGACTAG) | 0.259 |
| TAGGTGACTTGGGTTCTAACCTGTTGCGG (site TAGGTGACTCC) | 2.13 |
| ATTAGTGCTTGGGTTCTAACCTGTTGCCT (site ACTAGTGCTAG) | 0 |
| GCGGGGTCTTGGGTTCTAACCTGTTGCTT (site GCTGGGTCTAA) | 0.783 |
| CGCCCACCTTGGGTTCTAACCTGTTGCCT (site CGCCCACCTAG) | 0.0145 |
| AGGAACCCTTGGGTTCTAACCTGTTGCTT (site AGGAACCCTCA) | 0.328 |
| ACTGAGTCTTGGGTTCTAACCTGTTGCAT (site ACTGAGTCTAT) | 2.69 |
| AGTTCGTCTTGGGTTCTAACCTGTTGCCG (site AGCTCGTCTCC) | 0.29 |
| TAGGATACTTGGGTTCTAACCTGTTGCAA (site TAGGATACTGT) | 0.0992 |
| TTCTGAACTTGGGTTCTAACCTGTTGCCT (site TTCTGAACTAG) | 0.126 |
| CTTGGAACTTGGGTTCTAACCTGTTGCCT (site CTTGGACCTAG) | 0.242 |
| CATTCAACTTGGGTTCTAACCTGTTGCCG (site CATTCAACTCG) | 0.0716 |
| TACTCTTCTTGGGTTCTAACCTGTTGCCT (site TACTCTTCTAG) | 0.279 |
| GCGGGGTCTTGGGTTCTAACCTGTTGCTT (site GCAGGGTCTAA) | 2.65 |
| ACCCGCTCTTGGGTTCTAACCTGTTGCCT (site TAGGATCCTTC) | 0.538 |
| GATGTATCTTGGGTTCTAACCTGTTGCCT (site GATGTATCTAG) | 1.09 |
| ACCTACCCTTGGGTTCTAACCTGTTGCGG (site ACCTACCCTCC) | 2.33 |
| GCTCTCCCTTGGGTTCTAACCTGTTGCCT (site GCGCTCCCTAG) | 0.253 |
| TGCTCGGCTTGGGTTCTAACCTGTTGCCT (site AGCTCCGCTAG) | 0 |
| AGCTGGGCTTGGGTTCTAACCTGTTGCCT (site AGCTGGGCTAG) | 0.235 |
| TCCGTGTCTTGGGTTCTAACCTGTTGCCT (site TCCGTGACTAG) | 0.0308 |
| AGGAAGGCTTGGGTTCTAACCTGTTGCCA (site GACGTAACTCT) | 0.145 |
| AGCCTTACTTGGGTTCTAACCTGTTGCCT (site AACCTTACTAG) | 0.106 |
| GTAAGAACTTGGGTTCTAACCTGTTGCTT (site GTAAGTACTAA) | 0.03 |
| CGGGACACTTGGGTTCTAACCTGTTGCGG (site CGGTACACTCC) | 0.867 |
| CGACCCTCTTGGGTTCTAACCTGTTGCTT (site ACACCCTCTAA) | 0.178 |
